// AC50 collected for Mu-type opioid receptor (Homo sapiens, UniProt P35372)

These recorded examples may help you get a feel for the data.
{"Compound": "CCOc1ccc(Cc2cc([C@@H]3O[C@H](CO)[C@@H](O)[C@H](O)[C@H]3O)ccc2Cl)cc1", "System tested": "Mu-type opioid receptor (Homo sapiens, UniProt P35372)", "AC50": "> 30 µM"}
{"Compound": "CCC(C)n1ncn(-c2ccc(N3CCN(c4ccc(OCC5COC(Cn6cncn6)(c6ccc(Cl)cc6Cl)O5)cc4)CC3)cc2)c1=O (stereo not given)", "System tested": "Mu-type opioid receptor (Homo sapiens, UniProt P35372)", "AC50": "> 10 µM"}
{"Compound": "CCCC1O[C@@H]2C[C@H]3[C@@H]4CCC5=CC(=O)C=C[C@]5(C)[C@H]4[C@@H](O)C[C@]3(C)[C@]2(C(=O)CO)O1 (stereo not given in full) [BUDESONIDE]", "System tested": "Mu-type opioid receptor (Homo sapiens, UniProt P35372)", "AC50": "> 30 µM"}
{"Compound": "CCOC(=O)[C@H](CCc1ccccc1)N[C@@H](C)C(=O)N1[C@H](C(=O)O)C[C@@H]2CCC[C@@H]21", "System tested": "Mu-type opioid receptor (Homo sapiens, UniProt P35372)", "AC50": "> 30 µM"}
{"Compound": "CC[C@H]1OC(=O)[C@H](C)[C@@H](O[C@H]2C[C@@](C)(OC)[C@@H](O)[C@H](C)O2)[C@H](C)[C@@H](O[C@@H]2O[C@H](C)C[C@H](N(C)C)[C@H]2O)[C@](C)(O)C[C@@H](C)CN(C)[C@H](C)[C@@H](O)[C@]1(C)O", "System tested": "Mu-type opioid receptor (Homo sapiens, UniProt P35372)", "AC50": "> 10 µM"}
{"Compound": "CCCC(C)C1(CC)C(=O)NC(=O)NC1=O (stereo not given)", "System tested": "Mu-type opioid receptor (Homo sapiens, UniProt P35372)", "AC50": "> 30 µM"}

Provide the documented AC50 with Mu-type opioid receptor (Homo sapiens, UniProt P35372) as the system for Cc1c(OCC(F)(F)F)ccnc1C[S+]([O-])c1nc2ccccc2[nH]1 (stereo not given) 4 µM

Next compound up: CCCc1nc(C(C)(C)O)c(C(=O)OCc2oc(=O)oc2C)n1Cc1ccc(-c2ccccc2-c2nnn[nH]2)cc1 > 10 µM

Next compound up: Cc1cc(C(C)(C)C)c(O)c(C)c1CC1=NCCN1 > 30 µM

Next compound up: CN1[C@@H]2CC[C@H]1C[C@@H](OC(c1ccccc1)c1ccccc1)C2 6.26 µM

Next compound up: CCCC(=O)O[C@]1(C(=O)CO)CC[C@H]2[C@@H]3CCC4=CC(=O)CC[C@]4(C)[C@H]3[C@@H](O)C[C@@]21C [HYDROCORTISONE BUTYRATE] > 30 µM

Next compound up: CN(C)CCC=C1c2ccccc2C(C)(C)c2ccccc21 24 µM

====

// AC50 collected for Cholecystokinin receptor type A (Homo sapiens)

These recorded examples may help you get a feel for the data.
{"Compound": "C[N+]1(C)CCC(OC(=O)C(O)(c2ccccc2)C2CCCC2)C1 (configuration not stated) [GLYCOPYRRONIUM BROMIDE]", "Result": "> 30 µM"}
{"Compound": "COc1ccccc1OCC(O)CN1CCN(CC(=O)Nc2c(C)cccc2C)CC1 (configuration not stated)", "Result": "> 30 µM"}
{"Compound": "O=C(O)CCCCCCNC1c2ccccc2CCc2ccccc21", "Result": "> 30 µM"}

// lookup AC50 for C[C@]1(O)CC[C@H]2[C@@H]3CCC4=CC(=O)CC[C@]4(C)[C@@]3(F)[C@@H](O)C[C@@]21C > 10 µM

Next compound up: O=[N+]([O-])O[C@@H]1CO[C@H]2[C@@H]1OC[C@@H]2O [ISOSORBIDE MONONITRATE] > 30 µM

Next compound up: CN1C(=O)OC(C)(C)C1=O > 10 µM

Next compound up: N[C@@H]1[C@H]2CN(c3nc4c(cc3F)c(=O)c(C(=O)O)cn4-c3ccc(F)cc3F)C[C@@H]12 > 30 µM

Next compound up: CC(=O)Nc1ccc(O)cc1 > 30 µM

Next compound up: CC(=O)O[C@H]1C[C@@H]2CC[C@@H]3[C@H](CC[C@@]4(C)[C@H]3C[C@H]([N+]3(C)CCCCC3)[C@@H]4OC(C)=O)[C@@]2(C)C[C@@H]1N1CCCCC1 > 30 µM

Next compound up: Clc1ccc2nsnc2c1NC1=NCCN1 > 30 µM

Next compound up: CN1C(=O)C(O)N=C(c2ccccc2Cl)c2cc(Cl)ccc21 (configuration not stated) > 30 µM
